- Tested on: dd-mice
- Experiment Summary: Acute toxicity (minimum lethal dose)
- Format: in vivo
- Protocol Conditions: male dd-mice, po, mortality for seven days
Value Kind: Acute Toxicity MLD po (minimum lethal dose) (mg/kg)
Report as a plain number; the unit mg/kg is understood.

q: Return reported Acute Toxicity MLD po (minimum lethal dose); argument: COc1ccc(C(O)CNC(C)CC2OCCc3ccccc32)cc1 (centres unmarked)
a: 200

q: Now consider CC(CC1OCCc2ccccc21)NCC(O)c1ccccc1 (centres unmarked) .
a: 200

q: Next up: CC(CC1OCCc2ccccc21)NC[C@H](O)c1ccccc1 (some centres unmarked)
a: 200

* * *

Field: Acute Toxicity MLD ip (minimum lethal dose). Provide a value for each of the compounds that follow.
- System: dd-mice
- Experiment Summary: Acute toxicity (minimum lethal dose)
- Assay type: in vivo
- Protocol Conditions: male dd-mice, ip, mortality for seven days
Enter your answer as a number in mg/kg; do not include the unit.

q: For the compound shown here, CC(CC1OCCc2ccccc21)NC[C@H](O)c1ccccc1 (some centres unmarked) [Compound 5] , give the reported Acute Toxicity MLD ip (minimum lethal dose).
a: 25

q: Same for COc1ccc(C(O)CNC(C)CC2OCCc3ccccc32)cc1 (centres unmarked) [Compound 10]
a: 100
